target: T1, CD3 expressed on cell-surface of primary human T cells (human, UniProt P07766 23-207; P04234 22-171); experiment: flow cytometry competition vs murine SP34-AF488 on human T cells, n = 2
T1 construct: also called cell-surface CD3; human CD3
T1 sequence (P07766 23-207 limits assumed, chain 1 of 2): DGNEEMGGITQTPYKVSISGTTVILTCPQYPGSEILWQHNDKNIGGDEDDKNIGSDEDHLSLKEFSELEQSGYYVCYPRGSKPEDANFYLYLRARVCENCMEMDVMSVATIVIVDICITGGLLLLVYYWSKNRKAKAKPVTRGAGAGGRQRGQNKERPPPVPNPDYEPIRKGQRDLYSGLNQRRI
T1 sequence (P04234 22-171 limits assumed, chain 2 of 2): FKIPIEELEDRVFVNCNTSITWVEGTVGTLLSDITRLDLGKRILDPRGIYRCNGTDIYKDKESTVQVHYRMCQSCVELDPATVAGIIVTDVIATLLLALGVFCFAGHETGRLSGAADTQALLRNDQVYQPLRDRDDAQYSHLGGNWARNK
Assay Endpoint: IC50 (µg/mL)
Value expressed in µg/mL; do not type the unit.

huSP34.2.2 Fab-HF (Fab, V domains shown) VH: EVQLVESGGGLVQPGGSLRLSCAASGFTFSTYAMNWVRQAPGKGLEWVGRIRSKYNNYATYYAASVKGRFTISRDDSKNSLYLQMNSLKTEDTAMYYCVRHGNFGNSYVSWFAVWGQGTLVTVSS VL: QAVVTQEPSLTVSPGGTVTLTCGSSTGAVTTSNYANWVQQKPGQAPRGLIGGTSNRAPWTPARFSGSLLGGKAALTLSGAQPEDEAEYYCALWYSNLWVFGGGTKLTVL :: 16.6
huSP34.3.1 Fab-HF (Fab, V domains shown) VH: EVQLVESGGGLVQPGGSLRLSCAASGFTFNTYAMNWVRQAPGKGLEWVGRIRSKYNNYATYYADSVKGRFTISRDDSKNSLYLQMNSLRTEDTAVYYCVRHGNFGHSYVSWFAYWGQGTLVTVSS VL: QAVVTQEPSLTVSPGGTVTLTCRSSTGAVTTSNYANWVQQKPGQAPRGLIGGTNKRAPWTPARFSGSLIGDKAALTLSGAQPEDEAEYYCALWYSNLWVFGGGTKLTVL :: 2.22
huSP34.2.1 Fab-HF (Fab, V domains shown) VH: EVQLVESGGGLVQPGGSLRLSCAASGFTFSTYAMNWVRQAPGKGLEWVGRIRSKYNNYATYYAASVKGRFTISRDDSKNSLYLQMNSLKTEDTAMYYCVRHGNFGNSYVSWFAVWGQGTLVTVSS VL: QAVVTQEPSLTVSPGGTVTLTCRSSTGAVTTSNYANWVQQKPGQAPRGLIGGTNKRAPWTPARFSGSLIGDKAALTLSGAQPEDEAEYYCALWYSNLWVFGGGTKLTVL :: 3.68

Here is the next item to consider.
huSP34.2.6 Fab-HF (Fab, V domains shown) VH: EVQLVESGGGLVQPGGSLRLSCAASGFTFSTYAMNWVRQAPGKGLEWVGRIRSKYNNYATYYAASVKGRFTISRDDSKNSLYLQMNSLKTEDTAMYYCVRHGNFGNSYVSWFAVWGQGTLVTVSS VL: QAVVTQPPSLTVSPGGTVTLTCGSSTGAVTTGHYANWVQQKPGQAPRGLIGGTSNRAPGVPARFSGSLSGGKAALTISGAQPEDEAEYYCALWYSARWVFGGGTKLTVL yielded IC50 of 3.4
